B1: Double-stranded RNA-binding protein Staufen homolog 1, residues 183 to 249; numbered along this chain, O95793 (parent)
chain: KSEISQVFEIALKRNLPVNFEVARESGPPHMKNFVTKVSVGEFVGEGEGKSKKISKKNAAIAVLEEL

# Variants of: B1
# assay-method-text: abundance fitness (aPCA) (normalised: wild type 0, dead -1); higher = more abundant; growth selection in yeast, the domain comes from the species named
# condition-label: Homo sapiens
We begin with a simple list: items and their reported abundance fitness.
Please reply with the number alone, leaving off any unit.

Consider the worked cases shown below.
[
  {
    "sequence-chain": "KSEISQVFEIALKRNLPVNFEVARESGPPHMKNFVTKVSVGEFVGEHEGKSKKISKKNAAIAVLEEL",
    "abundance fitness": -0.555
  },
  {
    "sequence-chain": "KSEISQVFEIALKRNLPTNFEVARESGPPHMKNFVTKVSVGEFVGEGEGKSKKISKKNAAIAVLEEL",
    "abundance fitness": -0.784
  },
  {
    "sequence-chain": "KSEISQVFEIALKRNLPVNFEVARESGPPHMKNFVTKVSVGEFVGEGEGKSKQISKKNAAIAVLEEL",
    "abundance fitness": -0.207
  },
  {
    "sequence-chain": "KSEISQVFEIALKRNLPVNFEVARESGPPHMKNFVTKVSVGEFVGVGEGKSKKISKKNAAIAVLEEL",
    "abundance fitness": 0.036
  },
  {
    "sequence-chain": "KSEISQVFEIALKRNLPVNFEVARESGPPHMKNFVTKVSVGEFVGEGEGKSKKISKKQAAIAVLEEL",
    "abundance fitness": -0.126
  }
]

Field: next variant
Task: Could you tell me which abundance fitness is on file for KSEISQVFEIALKRNLPVNFEVARISGPPHMKNFVTKVSVGEFVGEGEGKSKKISKKNAAIAVLEEL ?
Result: -0.141
